target: Nuclear receptor ROR-gamma (Homo sapiens, UniProt P51449); experiment: Displacement of [3H]-Digoxin from recombinant human GST-fused RORgammat LBD after 1 to 4 hrs by scintillation counting method
Sequence (P51449 whole entry, the tested form may be a part): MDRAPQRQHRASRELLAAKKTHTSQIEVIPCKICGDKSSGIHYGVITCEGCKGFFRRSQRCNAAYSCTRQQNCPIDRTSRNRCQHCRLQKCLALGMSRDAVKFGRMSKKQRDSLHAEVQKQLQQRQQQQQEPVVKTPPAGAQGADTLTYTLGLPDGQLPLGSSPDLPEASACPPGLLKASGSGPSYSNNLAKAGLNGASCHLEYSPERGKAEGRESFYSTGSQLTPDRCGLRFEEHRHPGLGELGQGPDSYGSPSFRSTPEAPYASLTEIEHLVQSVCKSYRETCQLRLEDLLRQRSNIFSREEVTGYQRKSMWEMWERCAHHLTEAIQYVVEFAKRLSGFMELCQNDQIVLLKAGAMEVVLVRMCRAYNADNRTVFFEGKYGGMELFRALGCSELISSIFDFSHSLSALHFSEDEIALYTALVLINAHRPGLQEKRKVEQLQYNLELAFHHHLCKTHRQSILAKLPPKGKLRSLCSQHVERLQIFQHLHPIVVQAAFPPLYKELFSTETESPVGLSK
PARAMETER_MEASURED: IC50

{"SAMPLE_SMILES": "CCS(=O)(=O)c1ccc(CC(=O)Nc2ccc(C(C)(C)C(=O)N3Cc4ccccc4C3)cc2)cc1", "REPORTED_VALUE": "< 30 nM"}

What reported IC50 corresponds to CCS(=O)(=O)c1ccc(CC(=O)Nc2ccc(C(C)(C)C(=O)Nc3ccccc3)cc2)cc1 on Nuclear receptor ROR-gamma (Homo sapiens, UniProt P51449)?
< 30 nM

CCS(=O)(=O)c1ccc(CC(=O)Nc2ccc(C(C)(C)C(=O)N3CCc4ccccc43)cc2)cc1 ?
< 30 nM

What about CCOC(=O)C(C)(C)c1ccc(NC(=O)Cc2ccc(S(=O)(=O)CC)cc2)cc1 ?
64 nM
